procedureDetails: Rat PK, compartmental analysis
studyConditions: male, Sprague-Dawley, plasma, other: intravenous and oral, fitted together
metric: clearance

# clearance (compound: FC1CCN(CCOc2ccc(C3CCC4(CC3)OOC3(OO4)C4CC5CC(C4)CC3C5)cc2)CC1 (stereo not shown) ) is 26.7 mL/min/kg

* * *

studySystem: UniProtKB Q12809
Sequence (Q12809 whole entry): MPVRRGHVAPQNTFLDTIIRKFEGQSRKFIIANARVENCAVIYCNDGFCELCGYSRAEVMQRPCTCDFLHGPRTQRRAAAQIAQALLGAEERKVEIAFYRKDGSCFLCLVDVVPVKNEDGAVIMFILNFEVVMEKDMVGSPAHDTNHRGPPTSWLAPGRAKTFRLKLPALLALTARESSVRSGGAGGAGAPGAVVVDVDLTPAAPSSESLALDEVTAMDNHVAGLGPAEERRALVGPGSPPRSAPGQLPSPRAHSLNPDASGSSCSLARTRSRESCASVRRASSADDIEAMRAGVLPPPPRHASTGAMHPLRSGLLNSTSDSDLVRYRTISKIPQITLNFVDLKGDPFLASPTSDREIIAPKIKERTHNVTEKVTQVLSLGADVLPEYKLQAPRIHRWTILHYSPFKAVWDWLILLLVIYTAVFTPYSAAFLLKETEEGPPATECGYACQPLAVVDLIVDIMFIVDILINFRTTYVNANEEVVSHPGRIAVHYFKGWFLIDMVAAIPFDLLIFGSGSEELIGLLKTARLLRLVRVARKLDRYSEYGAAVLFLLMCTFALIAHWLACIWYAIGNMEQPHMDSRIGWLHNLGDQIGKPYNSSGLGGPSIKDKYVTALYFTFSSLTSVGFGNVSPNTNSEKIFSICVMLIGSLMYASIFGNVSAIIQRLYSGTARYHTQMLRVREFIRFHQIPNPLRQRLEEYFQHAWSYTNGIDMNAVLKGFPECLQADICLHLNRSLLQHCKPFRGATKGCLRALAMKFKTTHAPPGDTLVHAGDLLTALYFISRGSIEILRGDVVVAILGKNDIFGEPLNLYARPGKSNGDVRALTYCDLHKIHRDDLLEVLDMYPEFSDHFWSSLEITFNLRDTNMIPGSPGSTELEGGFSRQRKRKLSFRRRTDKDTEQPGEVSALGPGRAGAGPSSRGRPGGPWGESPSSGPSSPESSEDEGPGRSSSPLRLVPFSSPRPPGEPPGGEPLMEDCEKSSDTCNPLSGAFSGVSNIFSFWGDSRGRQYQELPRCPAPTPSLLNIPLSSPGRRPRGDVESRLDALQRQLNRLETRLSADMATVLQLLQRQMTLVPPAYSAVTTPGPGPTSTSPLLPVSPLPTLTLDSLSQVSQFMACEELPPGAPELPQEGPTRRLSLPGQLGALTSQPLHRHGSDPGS
procedureDetails: hERG electrophysiology assay (IonWorks HT, CHO cells)
pIC50: −log10 of the molar value.
metric: pIC50

// FC1CCN(CCOc2ccc(C3CCC4(CC3)OOC3(OO4)C4CC5CC(C4)CC3C5)cc2)CC1 (stereo not shown) [Compound E209] : pIC50 value = < 5.46

* * *

procedureDetails: Mouse PK, compartmental analysis
studyConditions: female, Swiss Outbred, plasma, other: intravenous and oral, fitted together
metric: clearance (mL/min/kg)
Give your result in mL/min/kg as a bare value.

Reported clearance for FC1CCN(CCOc2ccc(C3CCC4(CC3)OOC3(OO4)C4CC5CC(C4)CC3C5)cc2)CC1 (stereo not shown) [Compound E209] was 71.7

* * *

Each item that follows carries a reported half-life at 1 µM.
procedureDetails: Rat blood stability in vitro
studyConditions: male, Sprague Dawley, freshly collected whole blood
Your answer should be a plain number; it is taken to be in h.

Field: example entries. Status: answers known.
What the record says about CS(=O)(=O)N1CCN(CCCOc2ccc(C3CCC4(CC3)OOC3(OO4)C4CC5CC(C4)CC3C5)cc2)CC1 (stereo not drawn) [Compound 7] : half-life at 1 µM is 15

half-life at 1 µM in this record for c1cc(C2CCC3(CC2)OOC2(OO3)C3CC4CC(C3)CC2C4)ccc1OCCCN1CCOCC1 (stereo not drawn) [Compound 5] : 15

Consider c1cc(C2CCC3(CC2)OOC2(OO3)C3CC4CC(C3)CC2C4)ccc1OCCN1CCOCC1 (stereo not drawn) [Compound 4] . Its measured half-life at 1 µM is 14

GET /value?item= FC1(F)CCN(CCOc2ccc(C3CCC4(CC3)OOC3(OO4)C4CC5CC(C4)CC3C5)cc2)CC1 (stereo not drawn) [Compound 8] &field=half-life at 1 µM returns 16

For this molecule ( CS(=O)(=O)N1CCN(CCOc2ccc(C3CCC4(CC3)OOC3(OO4)C4CC5CC(C4)CC3C5)cc2)CC1 (stereo not drawn) [Compound 6] ), measured half-life at 1 µM is 12

Shifting focus to the molecule that follows.
The molecule identified as FC1CCN(CCOc2ccc(C3CCC4(CC3)OOC3(OO4)C4CC5CC(C4)CC3C5)cc2)CC1 (stereo not drawn) [Compound E209] registered its half-life at 1 µM at 13

* * *

procedureDetails: Dog PK, compartmental analysis
studyConditions: male, Beagle, plasma, other: intravenous and oral, fitted together
metric: clearance (mL/min/kg)
# unit: mL/min/kg | format: bare number

// FC1CCN(CCOc2ccc(C3CCC4(CC3)OOC3(OO4)C4CC5CC(C4)CC3C5)cc2)CC1 (stereo not shown) : clearance value = 18.3

* * *

studySystem: Sigma 1 receptors (Homo sapiens, UniProt Q99720)
Construct: CEREP
Sequence (Q99720 whole entry): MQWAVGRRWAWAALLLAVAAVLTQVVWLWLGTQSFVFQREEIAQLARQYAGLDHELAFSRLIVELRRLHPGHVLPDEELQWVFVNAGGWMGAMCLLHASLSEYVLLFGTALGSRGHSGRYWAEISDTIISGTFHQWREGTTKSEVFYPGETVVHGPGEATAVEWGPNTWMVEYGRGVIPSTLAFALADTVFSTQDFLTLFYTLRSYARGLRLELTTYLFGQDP
procedureDetails: CEREP radioligand binding screen, Sigma 1
metric: IC50

The compound FC1CCN(CCOc2ccc(C3CCC4(CC3)OOC3(OO4)C4CC5CC(C4)CC3C5)cc2)CC1 (stereo not shown) showed IC50 equal to ~200 nM

* * *

Below is a list of entries, each paired with its recorded pIC50 value.
Test system: P. falciparum strains (sensitive and resistant)
procedureDetails: microbe, parasite or virus in culture
Assay type: cell-based
studyConditions: Plasmodium falciparum, HB3, strain HB3 (chloroquine sensitive), mean ± SD n=3
// scale note: pIC50 = -log10(conc_M); give the bare number

Item CCN(CC)CCCC(C)Nc1ccnc2cc(Cl)ccc12 (stereo not drawn) [Chloroquine, chloroquine] was tested on P. falciparum strains (sensitive and resistant); the reported pIC50 is 8.05

Readout pIC50 for FC1CCN(CCOc2ccc(C3CCC4(CC3)OOC3(OO4)C4CC5CC(C4)CC3C5)cc2)CC1 (stereo not drawn) [Compound E209] , test system P. falciparum strains (sensitive and resistant), was 8.38

Now examine the next entry.
Observed pIC50 on P. falciparum strains (sensitive and resistant), entry C[C@H]1[C@H](OC(=O)CCC(=O)O)O[C@@H]2O[C@@]3(C)CC[C@H]4[C@H](C)CC[C@@H]1[C@@]24OO3 [Artesunate, artesunate] , equals 8.55

* * *

procedureDetails: in vivo
studyConditions: female, Sprague-Dawley, rat, po, 50 mg/kg
metric: Cmax (ng/mL)
Report the figure in ng/mL without appending any unit label.

Value of Cmax reported for the compound FC1CCN(CCOc2ccc(C3CCC4(CC3)OOC3(OO4)C4CC5CC(C4)CC3C5)cc2)CC1 (stereo not shown) [Compound E209] is 1070

* * *

procedureDetails: Metabolic stability and metabolite profile in human liver microsomes
studyConditions: human, liver microsomes
metric: microsomal CLint at 1 µM

Memo: FC1CCN(CCOc2ccc(C3CCC4(CC3)OOC3(OO4)C4CC5CC(C4)CC3C5)cc2)CC1 (stereo not shown) , reported microsomal CLint at 1 µM: 25 µL/min/mg

* * *

studySystem: CYP2D6 (Homo sapiens)
Sequence (P10635 whole entry): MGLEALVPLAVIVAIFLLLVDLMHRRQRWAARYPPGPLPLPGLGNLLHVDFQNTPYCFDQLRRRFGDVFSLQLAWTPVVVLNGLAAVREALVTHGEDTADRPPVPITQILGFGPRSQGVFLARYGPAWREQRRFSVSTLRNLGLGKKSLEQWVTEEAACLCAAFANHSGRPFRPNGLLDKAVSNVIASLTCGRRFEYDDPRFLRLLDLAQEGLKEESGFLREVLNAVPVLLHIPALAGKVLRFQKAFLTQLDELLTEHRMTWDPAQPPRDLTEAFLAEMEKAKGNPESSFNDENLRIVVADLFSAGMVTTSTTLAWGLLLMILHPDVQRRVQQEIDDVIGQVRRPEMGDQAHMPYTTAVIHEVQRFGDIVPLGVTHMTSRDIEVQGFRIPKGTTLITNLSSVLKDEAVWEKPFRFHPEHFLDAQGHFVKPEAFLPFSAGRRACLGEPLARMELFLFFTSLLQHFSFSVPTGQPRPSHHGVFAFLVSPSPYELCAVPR
metric: IC50

Lab note: measured IC50 of FC1CCN(CCOc2ccc(C3CCC4(CC3)OOC3(OO4)C4CC5CC(C4)CC3C5)cc2)CC1 (stereo not shown) was > 20 µM

* * *

studySystem: CYP1A2 (Homo sapiens, UniProt P05177)
Sequence (P05177 whole entry): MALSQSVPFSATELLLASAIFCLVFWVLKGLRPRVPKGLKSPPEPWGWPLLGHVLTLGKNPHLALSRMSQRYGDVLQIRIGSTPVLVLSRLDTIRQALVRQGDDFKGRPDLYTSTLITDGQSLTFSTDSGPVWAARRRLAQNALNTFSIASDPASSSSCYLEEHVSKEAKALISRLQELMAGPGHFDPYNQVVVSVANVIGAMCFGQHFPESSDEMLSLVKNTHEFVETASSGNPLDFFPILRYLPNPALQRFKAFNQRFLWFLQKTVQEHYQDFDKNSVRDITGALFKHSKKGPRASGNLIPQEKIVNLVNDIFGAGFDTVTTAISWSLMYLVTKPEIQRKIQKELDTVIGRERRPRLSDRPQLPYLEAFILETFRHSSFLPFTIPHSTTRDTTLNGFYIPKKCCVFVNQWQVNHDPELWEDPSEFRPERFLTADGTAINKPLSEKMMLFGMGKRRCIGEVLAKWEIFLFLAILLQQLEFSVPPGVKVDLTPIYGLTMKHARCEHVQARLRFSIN
metric: IC50

Memo: FC1CCN(CCOc2ccc(C3CCC4(CC3)OOC3(OO4)C4CC5CC(C4)CC3C5)cc2)CC1 (stereo not shown) , reported IC50: > 20 µM

* * *

studySystem: CYP2C19 (Homo sapiens, UniProt P33261)
Sequence (P33261 whole entry): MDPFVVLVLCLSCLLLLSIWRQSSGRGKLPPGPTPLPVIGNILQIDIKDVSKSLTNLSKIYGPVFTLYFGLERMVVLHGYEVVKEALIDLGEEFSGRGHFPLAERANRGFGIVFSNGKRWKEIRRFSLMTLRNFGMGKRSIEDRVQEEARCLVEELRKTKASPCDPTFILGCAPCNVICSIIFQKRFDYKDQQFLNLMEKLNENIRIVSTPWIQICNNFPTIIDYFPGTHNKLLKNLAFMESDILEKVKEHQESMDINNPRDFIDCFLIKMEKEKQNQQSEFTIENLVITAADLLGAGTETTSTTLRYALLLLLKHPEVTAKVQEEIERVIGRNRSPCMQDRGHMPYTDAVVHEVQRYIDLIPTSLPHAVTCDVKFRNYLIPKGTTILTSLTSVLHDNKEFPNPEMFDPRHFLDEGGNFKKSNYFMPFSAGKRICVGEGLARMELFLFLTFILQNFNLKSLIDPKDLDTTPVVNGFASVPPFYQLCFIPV
pIC50: −log10 of the molar value.
metric: pIC50

Entry FC1CCN(CCOc2ccc(C3CCC4(CC3)OOC3(OO4)C4CC5CC(C4)CC3C5)cc2)CC1 (stereo not shown) ; pIC50 = < 4.70

* * *

procedureDetails: Dog PK, compartmental analysis
studyConditions: male, Beagle, plasma, oral, 5 mg kg^−1
metric: bioavailability (%)
Give a bare numeral; the unit % is implied.

Per the record, FC1CCN(CCOc2ccc(C3CCC4(CC3)OOC3(OO4)C4CC5CC(C4)CC3C5)cc2)CC1 (stereo not shown) has bioavailability of 40

* * *

procedureDetails: in vivo
studyConditions: female, Sprague-Dawley, rat
metric: NOAEL (mg/kg/day)
Please reply with the bare figure in mg/kg/day and do not write the unit itself.

// NOAEL lookup, molecule = FC1CCN(CCOc2ccc(C3CCC4(CC3)OOC3(OO4)C4CC5CC(C4)CC3C5)cc2)CC1 (stereo not shown) , result: 50

* * *

procedureDetails: Metabolic stability in dog liver microsomes
Assay type: in vitro ADME
studyConditions: substrate 1 µM, n=1, read-out: In vitro CLint
metric: microsomal CLint at 1 µM (µL/min/mg)
Please give a number only; it is taken to be in µL/min/mg.

Field microsomal CLint at 1 µM (entry FC1CCN(CCOc2ccc(C3CCC4(CC3)OOC3(OO4)C4CC5CC(C4)CC3C5)cc2)CC1 (stereo not shown) [Compound E209] ) reads 10

* * *

studySystem: UniProt:P08684
Sequence (P08684 whole entry): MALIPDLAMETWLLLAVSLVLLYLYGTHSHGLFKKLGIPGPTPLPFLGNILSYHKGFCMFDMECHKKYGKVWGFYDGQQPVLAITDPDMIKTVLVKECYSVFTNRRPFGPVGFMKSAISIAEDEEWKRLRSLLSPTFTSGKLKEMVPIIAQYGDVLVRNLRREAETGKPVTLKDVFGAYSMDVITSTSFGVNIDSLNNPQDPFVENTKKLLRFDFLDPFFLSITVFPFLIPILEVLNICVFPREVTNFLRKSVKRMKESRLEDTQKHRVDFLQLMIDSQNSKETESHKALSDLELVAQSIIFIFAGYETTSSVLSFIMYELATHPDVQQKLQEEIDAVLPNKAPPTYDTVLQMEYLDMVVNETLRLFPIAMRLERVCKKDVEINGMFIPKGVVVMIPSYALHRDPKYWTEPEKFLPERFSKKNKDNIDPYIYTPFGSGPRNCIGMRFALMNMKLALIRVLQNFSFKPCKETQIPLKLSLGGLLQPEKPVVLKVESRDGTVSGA
metric: IC50

Reported IC50 (UniProt:P08684) for entry FC1CCN(CCOc2ccc(C3CCC4(CC3)OOC3(OO4)C4CC5CC(C4)CC3C5)cc2)CC1 (stereo not shown) is > 20 µM

* * *

procedureDetails: Metabolic stability and metabolite profile in human liver microsomes
studyConditions: human, liver microsomes
metric: half-life at 5 µM

Input FC1CCN(CCOc2ccc(C3CCC4(CC3)OOC3(OO4)C4CC5CC(C4)CC3C5)cc2)CC1 (stereo not shown) . Output half-life at 5 µM: 1.27 h

* * *

procedureDetails: In vitro intrinsic clearance, human liver microsomes (Chem Partners)
Assay type: in vitro ADME
studyConditions: human (H) liver microsomes
Listed compounds paired with reported CLint scaled
// units = mL/min/kg; emit number, no label

Examples with answers:
Form field CLint scaled, entry c1cc(C2CCC3(CC2)OOC2(OO3)C3CC4CC(C3)CC2C4)ccc1OCCCN1CCOCC1 (stereo not drawn) : 147

Short answer for CS(=O)(=O)N1CCN(CCCOc2ccc(C3CCC4(CC3)OOC3(OO4)C4CC5CC(C4)CC3C5)cc2)CC1 (stereo not drawn) : CLint scaled was 238

Kindly note the recorded CLint scaled for CS(=O)(=O)N1CCN(CCOc2ccc(C3CCC4(CC3)OOC3(OO4)C4CC5CC(C4)CC3C5)cc2)CC1 (stereo not drawn) , which is 257

Per the records, this compound ( FC1(F)CCN(CCOc2ccc(C3CCC4(CC3)OOC3(OO4)C4CC5CC(C4)CC3C5)cc2)CC1 (stereo not drawn) ) has CLint scaled equal to 107

Field CLint scaled (entry FC1CCN(CCOc2ccc(C3CCC4(CC3)OOC3(OO4)C4CC5CC(C4)CC3C5)cc2)CC1 (stereo not drawn) ) reads 58

Next:
Entry c1cc(C2CCC3(CC2)OOC2(OO3)C3CC4CC(C3)CC2C4)ccc1OCCN1CCOCC1 (stereo not drawn) — recorded CLint scaled = 135

These measurements were taken from paper PMC5458052.
